# Tested on: Mus musculus
# methodDescription: Anticonvulsant activity in ip dosed albino mouse assessed as protection against scPTZ-induced seizures after 30 mins
# Type: functional
# settings: 0.5 h
endpointName: ED50 (mg/kg)
Answers are plain numbers, in mg/kg.

1) Cc1nn(-c2ccccc2)c(Cl)c1/C=N/NC(=O)Cc1ccc(Cl)cc1 = 100
2) Cc1nn(-c2ccccc2)c(Cl)c1/C=N/NC(=O)c1ccc(F)cc1 = 100
3) CCCC(CCC)C(=O)[O-].[Na+] [VALPROATE SODIUM] = 300

For every listed record, write down its ED50.
1. Cc1nn(-c2ccccc2)c(Cl)c1/C=N/NC(=O)Cc1cccc2ccccc12
2. Cc1nn(-c2ccccc2)c(Cl)c1/C=N/NC(=O)c1ccc([N+](=O)[O-])cc1
3. Cc1nn(-c2ccccc2)c(Cl)c1/C=N/NC(=O)c1ccc(Cl)cc1
4. Cc1nn(-c2ccccc2)c(Cl)c1/C=N/NC(=O)c1ccc(Cl)cc1Cl

300
300
100
300
